The reported numbers originate from the supplement of paper PMC8007513.

test system: Trichoderma virens ATCC 9645; test: growth yield (OD600) with compound + IPBC relative to untreated control; higher = less growth inhibition; conditions: compound concentration: 100 uM; IPBC concentration: 200 ng/ml; 72 h
In all, about 1,300 compounds went through this assay and about 130 (10%) showed an effect of 50% or more. Only a selection was taken, and strong results are over-represented in it overall.
Label scheme for growth yield: lower than 90% is 0 (no), 90% and above is 1 (yes).

Threshold query (growth yield >= 90%) on CCCN(CCC)S(=O)(=O)c1ccc(C(=O)O)cc1 [Probenecid] + CCCCNC(=O)OCC#CI [3-iodo-2-propynyl butylcarbamate (IPBC)]
0 (no)

Item COc1c(N2C[C@@H]3CCCN[C@@H]3C2)c(F)cc2c(=O)c(C(=O)O)cn(C3CC3)c12 [Moxifloxacin] + CCCCNC(=O)OCC#CI [3-iodo-2-propynyl butylcarbamate (IPBC)] with growth yield of 90% or above?
1 (yes)

Textbook exercise: given the entry OCCN1C[C@H](O)[C@@H](O)[C@H](O)[C@H]1CO [Miglitol] + CCCCNC(=O)OCC#CI [3-iodo-2-propynyl butylcarbamate (IPBC)] , state whether its growth yield is greater than or equal to 90%.
1 (yes)
